Entry source: PubChem BioAssay

Test: MM1S cell viability effects, profiling panel, calcein-AM fluorescence, 48 h, basal (AID 1165);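 note: viability of MM1S multiple myeloma cells under basal unstimulated conditions; test concentration not given here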
Details: higher = more signal
experimental_endpoint: z-score

Solved entries:
molecule | experimental_endpoint | data_value
CCOC(=O)[C@H](CC(C)C)NC(=O)CCC1CC(OC(=O)NCc2cccc3ccccc23)CC2(CCCC(COC(=O)NCCOC)O2)O1 (stereo not given in full) | z-score | -0.441
COc1cccc([C@H]2Oc3ccc(OC)cc3C(=NOC[C@@H](O)[C@H]3O[C@@H]4OC(C)(C)O[C@@H]4[C@H]3O)[C@@H]2O)c1 | z-score | -0.174
COC(=O)[C@H]1O[C@@H](c2c(OC)c(OC)c(C)c(OC)c2OC)[C@H](C)[C@@H](O)[C@H]1C | z-score | 1
CCCNC(=O)OC[C@H]1O[C@H](c2ccccc2)C=C[C@@H]1Oc1ccc(OC)cc1 | z-score | -0.543
C[C@H]1COC(=O)[C@@H]2CCCN2C(=O)[C@@H](C)COC(=O)[C@H](Cc2ccccc2)NC1=O | z-score | 0.119
O=C1C[C@@H](O)[C@@H](O)[C@@H]2[C@@H]3C(=O)N(c4cccc(Oc5ccccc5)c4)C(=O)[C@@H]3CC[C@H]12 | z-score | 0.258

Lookup: Please list z-score recorded for the molecule CC(C)(C)N1C(=O)[C@H]2[C@H]3[C@H](O)[C@H](O)CC(=NO[C@@H]4O[C@H](CO)[C@@H](O)[C@H](O)[C@H]4O)[C@H]3CC[C@H]2C1=O
Found: -2.93

Lookup: Please list z-score recorded for the molecule O=C1[C@H]2[C@H]3[C@H](O)[C@H](O)CC(=NOC[C@@H](O)COCc4ccco4)[C@H]3CC[C@H]2C(=O)N1C[C@@H]1CCCO1
Found: 0.313

Lookup: Please list z-score recorded for the molecule COCCNC(=O)OCC1CCCC2(CC(OC(=O)NCc3ccc4c(c3)OCO4)CC(CCC(=O)N[C@@H](C)C(=O)OC)O2)O1 (stereo not given in full)
Found: 0.463
